- measurement target: UniProt:P27487
- test: In vitro DPP4 inhibition assay, fluorometric, H-Gly-Pro-amidomethyl coumarin substrate
- run parameters: read-out: % Inhibition, 100 μΜ Substrate
Please use rule met whenever inhibition at 0.08 µM is not below 20%, and rule not met whenever it is.

# compound, cat
records = [
    ("O=C1CSC(c2c(F)cccc2Cl)N1c1nc2ccc(C34CC5CC(CC(C5)C3)C4)cc2s1 (stereo not shown)", "rule met"),
    ("Cc1cc(C23CC4CC(CC(C4)C2)C3)cc2sc(N3C(=O)CSC3c3c(Cl)cccc3Cl)nc12 (stereo not shown)", "rule met"),
    ("O=C1CSC(c2c(Cl)cccc2Cl)N1c1nc2ccc(OC(F)(F)F)cc2s1 (stereo not shown)", "rule not met"),
    ("O=C1CSC(c2ccc(O)cc2)N1c1nc2ccc(OC(F)(F)F)cc2s1 (stereo not shown)", "rule not met"),
    ("O=C1CSC(c2ccc(F)cc2)N1c1nc2ccc(OC(F)(F)F)cc2s1 (stereo not shown)", "rule not met"),
    ("Cc1cc(C23CC4CC(CC(C4)C2)C3)cc2sc(N3C(=O)CSC3c3c(F)cccc3F)nc12 (stereo not shown)", "rule not met"),
]

---

- measurement target: UniProt:P27487
- test: In vitro DPP4 inhibition assay, fluorometric, H-Gly-Pro-amidomethyl coumarin substrate
- run parameters: Figure 4, competitive inhibitors
measured parameter: logIC50

# compound, observed measurement
rows = [
    ("O=C1CSC(c2cccc(Cl)c2Cl)N1c1nc2ccc(OC(F)(F)F)cc2s1 (centres unmarked) [h4]", 1.431),
    ("O=C1CSC(c2c(Cl)cccc2Cl)N1c1nc2ccc(OC(F)(F)F)cc2s1 (centres unmarked) [h1]", 1.491),
    ("O=C1CSC(c2c(F)cccc2Cl)N1c1nc2ccc(OC(F)(F)F)cc2s1 (centres unmarked) [h3]", 1.079),
    ("Cc1cc(C23CC4CC(CC(C4)C2)C3)cc2sc(N3C(=O)CSC3c3c(F)cccc3F)nc12 (centres unmarked) [n2]", 1.681),
    ("O=C1CSC(c2ccc(Cl)cc2)N1c1nc2ccc(Cl)cc2s1 (centres unmarked) [c3]", 4.097),
]

---

- measurement target: DPP4 (Homo sapiens)
- test: In vitro DPP4 inhibition assay, fluorometric, H-Gly-Pro-amidomethyl coumarin substrate
- run parameters: read-out: % Inhibition, 50 μΜ Substrate

# compound, inhibition at 0.08 µM / %
rows = [
    ("O=C1CSC(c2ccc(F)cc2)N1c1nc2ccc(OC(F)(F)F)cc2s1 (stereo not drawn) [h6]", 46.8),
    ("O=C1CSC(c2ccc(Cl)cc2)N1c1nc2ccc(OC(F)(F)F)cc2s1 (stereo not drawn) [h8]", 45),
    ("O=C1CSC(c2cccc(Cl)c2Cl)N1c1nc2ccc(OC(F)(F)F)cc2s1 (stereo not drawn) [h4]", 84.4),
]

---

The entries below come with measured inhibition at 10 µM values attached.
- measurement target: UniProt P27487
- test: In vitro DPP4 inhibition assay, fluorometric, H-Gly-Pro-amidomethyl coumarin substrate
- run parameters: read-out: % Inhibition, 100 μΜ Substrate

# compound, inhibition at 10 µM / %
rows = [
    ("O=C1CSC(c2ccc(F)cc2)N1c1nc2ccc(Cl)cc2s1 (stereo not shown)", 11.4),
    ("O=C1CSC(c2ccc(Cl)cc2)N1c1nc2ccc(Cl)cc2s1 (stereo not shown)", 28),
    ("O=C1CSC(c2ccc([N+](=O)[O-])cc2)N1c1nc2ccc(Cl)cc2s1 (stereo not shown)", 14.1),
    ("COc1ccc(C2SCC(=O)N2c2nc3ccc(Cl)cc3s2)cc1 (stereo not shown)", 68.5),
]

---

- measurement target: DPP4 (Homo sapiens, UniProt P27487)
- Sequence (P27487 whole entry): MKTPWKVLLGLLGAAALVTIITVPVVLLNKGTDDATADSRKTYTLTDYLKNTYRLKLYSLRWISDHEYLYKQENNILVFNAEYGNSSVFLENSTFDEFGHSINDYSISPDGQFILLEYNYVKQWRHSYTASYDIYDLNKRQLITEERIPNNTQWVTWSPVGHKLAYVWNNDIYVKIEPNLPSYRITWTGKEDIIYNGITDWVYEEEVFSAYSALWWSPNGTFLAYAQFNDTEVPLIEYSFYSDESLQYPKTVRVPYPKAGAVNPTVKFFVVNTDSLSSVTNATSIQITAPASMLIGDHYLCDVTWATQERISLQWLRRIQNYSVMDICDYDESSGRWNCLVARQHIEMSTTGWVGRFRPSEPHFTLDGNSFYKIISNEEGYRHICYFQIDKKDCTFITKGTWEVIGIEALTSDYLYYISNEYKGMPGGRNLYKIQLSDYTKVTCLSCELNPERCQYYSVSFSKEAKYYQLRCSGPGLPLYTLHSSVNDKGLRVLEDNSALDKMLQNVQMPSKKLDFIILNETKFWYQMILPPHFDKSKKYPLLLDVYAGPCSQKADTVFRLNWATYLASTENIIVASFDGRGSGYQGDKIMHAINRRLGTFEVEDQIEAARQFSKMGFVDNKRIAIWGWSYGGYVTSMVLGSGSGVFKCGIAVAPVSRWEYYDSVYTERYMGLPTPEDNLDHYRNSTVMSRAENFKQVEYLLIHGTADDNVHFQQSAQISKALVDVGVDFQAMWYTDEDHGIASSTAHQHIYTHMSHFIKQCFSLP
- test: In vitro DPP4 inhibition assay, fluorometric, H-Gly-Pro-amidomethyl coumarin substrate
- run parameters: IC50, DPP4, triplicate
pIC50: −log10 of the molar value.
In this section we review reported pIC50 values for a set of compounds.
measured parameter: pIC50

# compound, measured parameter, comparison operator, observed measurement
records = [
    ("O=C1CSC(c2ccc(Cl)cc2Cl)N1c1nc2ccc(OC(F)(F)F)cc2s1 (centres unmarked) [h5]", "pIC50", "=", 7.63),
    ("O=C1CSC(c2c(Cl)cccc2Cl)N1c1nc2ccc(OC(F)(F)F)cc2s1 (centres unmarked) [h1]", "pIC50", "=", 7.51),
    ("O=C1CSC(c2ccc(O)cc2)N1c1nc2ccc(OC(F)(F)F)cc2s1 (centres unmarked) [h10]", "pIC50", "<", 7.00),
    ("O=C1CSC(c2cccc(Cl)c2Cl)N1c1nc2ccc(OC(F)(F)F)cc2s1 (centres unmarked) [h4]", "pIC50", "=", 7.57),
    ("Cc1cc(C23CC4CC(CC(C4)C2)C3)cc2sc(N3C(=O)CSC3c3c(Cl)cccc3Cl)nc12 (centres unmarked) [n1]", "pIC50", "=", 6.86),
]

---

- measurement target: DPP4 (Homo sapiens, UniProt P27487)
- test: In vitro DPP4 inhibition assay, fluorometric, H-Gly-Pro-amidomethyl coumarin substrate
- run parameters: read-out: % Inhibition, 100 μΜ Substrate
Measured inhibition at 0.08 µM by item
measured parameter: inhibition at 0.08 µM (%)

# compound, readout units, observed measurement
data = [
    ("COc1ccc(C2SCC(=O)N2c2nc3ccc(OC(F)(F)F)cc3s2)cc1 (centres unmarked)", "%", 37.6),
    ("O=C1CSC(c2ccc(Cl)cc2Cl)N1c1nc2ccc(OC(F)(F)F)cc2s1 (centres unmarked)", "%", 14),
    ("O=C1CSC(c2ccc(Cl)cc2)N1c1nc2ccc(OC(F)(F)F)cc2s1 (centres unmarked)", "%", 26),
    ("O=C1CSC(c2cccc(Cl)c2Cl)N1c1nc2ccc(OC(F)(F)F)cc2s1 (centres unmarked)", "%", 12.1),
    ("O=C1CSC(c2ccc([N+](=O)[O-])cc2)N1c1nc2ccc(OC(F)(F)F)cc2s1 (centres unmarked)", "%", 55),
]

---

- measurement target: DPP4 (Homo sapiens, UniProt P27487)
- test: In vitro DPP4 inhibition assay, fluorometric, H-Gly-Pro-amidomethyl coumarin substrate
- run parameters: read-out: % Inhibition, 50 μΜ Substrate

# compound, measurement target, readout units, inhibition at 10 µM
records = [
    ("O=C1CSC(c2ccc(Cl)cc2)N1c1nc2ccc(Cl)cc2s1 (stereo not shown)", "DPP4 (Homo sapiens, UniProt P27487)", "%", 41.6),
    ("O=C1CSC(c2ccc([N+](=O)[O-])cc2)N1c1nc2ccc(Cl)cc2s1 (stereo not shown)", "DPP4 (Homo sapiens, UniProt P27487)", "%", 66),
    ("O=C1CSC(c2ccc(F)cc2)N1c1nc2ccc(Cl)cc2s1 (stereo not shown)", "DPP4 (Homo sapiens, UniProt P27487)", "%", 33.5),
    ("COc1ccc(C2SCC(=O)N2c2nc3ccc(Cl)cc3s2)cc1 (stereo not shown)", "DPP4 (Homo sapiens, UniProt P27487)", "%", 48.5),
]

---

Entries and their pIC50 values follow.
- measurement target: DPP4 (Homo sapiens, UniProt P27487)
- test: In vitro DPP4 inhibition assay, fluorometric, H-Gly-Pro-amidomethyl coumarin substrate
- run parameters: IC50, DPP4, triplicate
pIC50: −log10 of the molar value.
measured parameter: pIC50

# compound, measurement target, measured parameter, comparison operator, observed measurement
data = [
    ("O=C1CSC(c2c(F)cccc2Cl)N1c1nc2ccc(C34CC5CC(CC(C5)C3)C4)cc2s1 (centres unmarked)", "DPP4 (Homo sapiens, UniProt P27487)", "pIC50", "=", 7.15),
    ("O=C1CSC(c2ccc(Cl)cc2)N1c1nc2ccc(Cl)cc2s1 (centres unmarked)", "DPP4 (Homo sapiens, UniProt P27487)", "pIC50", "=", 4.90),
    ("O=C1CSC(c2ccc([N+](=O)[O-])cc2)N1c1nc2ccc(Cl)cc2s1 (centres unmarked)", "DPP4 (Homo sapiens, UniProt P27487)", "pIC50", "=", 5.07),
    ("O=C1CSC(c2ccc([N+](=O)[O-])cc2)N1c1nc2ccc(OC(F)(F)F)cc2s1 (centres unmarked)", "DPP4 (Homo sapiens, UniProt P27487)", "pIC50", "=", 7.59),
    ("Cc1cc(C23CC4CC(CC(C4)C2)C3)cc2sc(N3C(=O)CSC3c3c(F)cccc3F)nc12 (centres unmarked)", "DPP4 (Homo sapiens, UniProt P27487)", "pIC50", "=", 7.32),
    ("O=C1CSC(c2ccc(F)cc2)N1c1nc2ccc(Cl)cc2s1 (centres unmarked)", "DPP4 (Homo sapiens, UniProt P27487)", "pIC50", "<", 4.70),
    ("COc1ccc(C2SCC(=O)N2c2nc3ccc(Cl)cc3s2)cc1 (centres unmarked)", "DPP4 (Homo sapiens, UniProt P27487)", "pIC50", "=", 4.94),
    ("O=C1CSC(c2ccc(F)cc2)N1c1nc2ccc(OC(F)(F)F)cc2s1 (centres unmarked)", "DPP4 (Homo sapiens, UniProt P27487)", "pIC50", "<", 7.00),
    ("O=C1CSC(c2c(F)cccc2Cl)N1c1nc2ccc(OC(F)(F)F)cc2s1 (centres unmarked)", "DPP4 (Homo sapiens, UniProt P27487)", "pIC50", "=", 7.92),
    ("COc1ccc(C2SCC(=O)N2c2nc3ccc(OC(F)(F)F)cc3s2)cc1 (centres unmarked)", "DPP4 (Homo sapiens, UniProt P27487)", "pIC50", "=", 7.14),
    ("O=C1CSC(c2ccc(Cl)cc2)N1c1nc2ccc(OC(F)(F)F)cc2s1 (centres unmarked)", "DPP4 (Homo sapiens, UniProt P27487)", "pIC50", "=", 7.04),
]
